target: 5-lipoxygenase (Rattus norvegicus); construct: 20,000× g supernatant from homogenized RBL-1 cells; endogenous in cells; host or cells: RBL-1 cells (20,000 x g supernatant of homogenate); assay: Inhibition of 5-lipoxygenase (20,000× g supernatant from homogenized RBL-1 cells); format: biochemical; settings: linear regression of percentage inhibition versus log concentration
pIC50: −log10 of the molar value.
Quantity: pIC50

CCC(=O)N(O)C(C)c1ccco1 (stereo not drawn)	4.74

(I) Cc1ccc(C(C)N(O)C(=O)Nc2ccccc2)o1 (stereo not drawn)
(II) Cc1ccc(C(C)N(O)C(=O)Nc2ccc(C(N)=O)cc2)o1 (stereo not drawn)
(III) CNC(=O)N(O)Cc1ccoc1
(IV) CNC(=O)N(O)C(C)c1ccc(C=Cc2ccccc2)o1 (stereo not drawn)
Place the items in sequence of falling pIC50. Answer by naming the labels in the order asked.
IV, I, II, III

====

molecular target: 5-lipoxygenase (Rattus norvegicus); construct: 20,000× g supernatant from homogenized RBL-1 cells; endogenous in cells; host or cells: RBL-1 cells (20,000 x g supernatant of homogenate); experiment: Inhibition of 5-lipoxygenase (20,000× g supernatant from homogenized RBL-1 cells); assay type: biochemical; conditions: linear regression of percentage inhibition versus log concentration
Quantity: IC50 (nM)

CC(=O)N(O)C(C)c1ccc(-c2ccccc2)o1 (centres unmarked) [Example 4]	510
CNC(=O)N(O)Cc1ccc(-c2ccccc2)o1 [Example 51]	1300

(P) Cc1ccc(C=CC(C)N(O)C(N)=O)o1 (centres unmarked) [Example 60]
(Q) CCOC(=O)c1ccc(NC(=O)N(O)C(C)c2ccc(C)o2)cc1 (centres unmarked) [Example 40]
(R) COC(=O)c1ccc(C(C)N(O)C(N)=O)o1 (centres unmarked) [Example 43]
Reorder the items by IC50, least to greatest. Please reply with the labels ordered as requested. Many thanks.
Q, P, R

====

tested on: leukotriene biosynthesis; experiment: Inhibition of leukotriene biosynthesis in vivo, rat peritoneal anaphylaxis model; details: read-out 15 min after antigen challenge, 200 umol/kg oral gavage one hour prior to antigen challenge, peritoneal fluids 15 minutes after challenge, vs mean of control group, read-out: % Inhibition with 200 umol/kg Oral Dose (leukotriene biosynthesis)
Quantity: inhibition in vivo at 200 µmol/kg (%)
Please respond with the number in % and leave the unit unwritten.

Returns the measured inhibition in vivo at 200 µmol/kg for the input compound. Input: CC(c1ccc(-c2ccccn2)o1)N(O)C(N)=O (stereo not shown)
75

Again, but for NC(=O)N(O)CC=Cc1ccco1 [Example 9, N-hydroxy-N-(3-fur-2-ylprop-2-enyl) urea]
91

Try the compound CNC(=O)N(O)C(C)c1ccc(C=Cc2ccccc2)o1 (stereo not shown)
81

Can you check CC(c1ccco1)N(O)C(N)=O (stereo not shown) [Example 36, N-hydroxy-N-(1-fur-2-ylethyl) urea] next?
57

Try the compound CC(c1ccoc1)N(O)C(N)=O (stereo not shown) [Example 56, N-Hydroxy-N-(1-fur-3-ylethyl) urea]
78

Here is the next compound: CC(=O)N(O)C(C)c1ccc(-c2ccccc2)o1 (stereo not shown)
87

Input "NC(=O)N(O)CC=Cc1ccoc1"
92

====

Listed here: items and their measured inhibition in vivo at 200 µmol/kg.
system: leukotriene biosynthesis; test: Inhibition of leukotriene biosynthesis in vivo, rat peritoneal anaphylaxis model; conditions: read-out 15 min after antigen challenge, 200 umol/kg oral gavage one hour prior to antigen challenge, peritoneal fluids 15 minutes after challenge, vs mean of control group, read-out: % Inhibition with 200 umol/kg Oral Dose (leukotriene biosynthesis)
I only need the number, in %, no unit after it.

Field: example entries. Status: answers known.
NC(=O)N(O)CC=Cc1ccc(-c2ccccc2)o1 [Example 53]	89
Cc1cc(C)c(-c2ccc(C(C)N(O)C(N)=O)o2)c(C)c1 (stereo not drawn) [Example 12]	91
CNC(=O)N(O)Cc1ccoc1 [Example 11]	90
Cc1ccc(C=CCN(O)C(N)=O)o1 [Example 59]	94
CC(c1ccc(C=Cc2ccccc2)o1)N(O)C(N)=O (stereo not drawn) [Example 5]	89

Which value of inhibition in vivo at 200 µmol/kg has been reported for COC(=O)c1ccc(C(C)N(O)C(N)=O)o1 (stereo not drawn) [Example 43] in the records?
49

Another compound: Cc1ccc(C(C)N(O)C(N)=O)o1 (stereo not drawn) [Example 1]
84

Query Cc1cc(C(C)N(O)C(N)=O)c(C)o1 (stereo not drawn) [Example 55] next
66

What would you report for NC(=O)N(O)Cc1ccc(-c2ccccc2)o1 [Example 50] ?
78

Now try CC(c1ccc(COCc2ccccc2)o1)N(O)C(N)=O (stereo not drawn) [Example 49] .
98

Request: CNC(=O)N(O)C(C)c1ccc(-c2ccccc2)o1 (stereo not drawn) [Example 3]
92

Next up: CC(c1ccc(-c2ccccc2)o1)N(O)C(N)=O (stereo not drawn) [Example 2]
96
